Reference for the values: PubChem BioAssay AID248

- System: L1210 leukemia ip in BDF1 mice, survival T/C
- test: NCI In Vivo Anticancer Drug Screen. Data for tumor model L1210 Leukemia (intraperitoneal) in B6D2F1 (BDF1) mice
- conditionInfo: endpoint: mean survival time; dose: 400.0 mg/kg/injection; schedule: Q01DX001 (ip); vehicle: saline; higher = longer survival
Toxic doses and inconclusive results are not listed.
Would you mind telling me the reported T/C of each entry?

{"molecule": "CCOC1C(=O)c2ccccc2CCN1S(=O)(=O)c1ccc(C)cc1 (configuration not stated)", "measurementName": "T/C", "endpointResult": "103 % of control"}
{"molecule": "CCOC(=O)/C(O)=C\\c1cc(Br)c(OC)cc1[N+](=O)[O-]", "measurementName": "T/C", "endpointResult": "95 % of control"}
{"molecule": "CC(=O)Nc1ccc(/C=N\\NC(=O)CCCC(=O)N/N=C/c2ccc(NC(C)=O)cc2)cc1", "measurementName": "T/C", "endpointResult": "98 % of control"}
{"molecule": "ONc1ncnc2nc[nH]c12", "measurementName": "T/C", "endpointResult": "114 % of control"}
{"molecule": "CN(C)c1nc2c(=O)[nH]cnc2n1C1OC(CO)C(O)C1O (configuration not stated)", "measurementName": "T/C", "endpointResult": "95 % of control"}
{"molecule": "C#CCNCc1ccccc1", "measurementName": "T/C", "endpointResult": "98 % of control"}

Hello, I would appreciate it if you could give T/C for each entry below.
1. CC(C)c1sc([S-])n[n+]1-c1ccccc1
2. O=C(NCCCl)NC1OC(CO)C(O)C(O)C1O (configuration not stated)

["91 % of control", "96 % of control"]

Hello, I would appreciate it if you could give T/C for each entry below.
1. CCSC(C)(C)C(C)(C#N)NNC(C)(C#N)C(C)(C)SCC (configuration not stated)
2. COC(=O)C12CCC1(Cl)CC2 (configuration not stated)
3. CCCCCCc1cc2ccccc2cc1CCCC
4. O=[N+]([O-])c1cccc(OCCOc2cccc([N+](=O)[O-])c2)c1

["93 % of control", "100 % of control", "97 % of control", "103 % of control"]

* * *

- Tested on: L1210 leukemia ip in BDF1 mice, survival T/C
- test: NCI In Vivo Anticancer Drug Screen. Data for tumor model L1210 Leukemia (intraperitoneal) in B6D2F1 (BDF1) mice
- conditionInfo: endpoint: mean survival time; dose: 50.0 mg/kg/injection; schedule: Q04DX003 (ip); vehicle: saline with Tween-80; higher = longer survival
Inconclusive results and toxic doses are left out.
measurementName: T/C

{"compound": "CC(NC(=O)NCCCl)c1ccccc1 (stereo not drawn)", "assayedTarget": "L1210 leukemia ip in BDF1 mice, survival T/C", "T/C": "90 % of control"}
{"compound": "N#C/C(=C\\c1ccc(-c2ccccc2)cc1)c1ccc(Cl)cc1", "assayedTarget": "L1210 leukemia ip in BDF1 mice, survival T/C", "T/C": "93 % of control"}
{"compound": "CC(=O)Oc1ccc2c(c1)C(=O)CCCCCC(=O)O2", "assayedTarget": "L1210 leukemia ip in BDF1 mice, survival T/C", "T/C": "95 % of control"}
{"compound": "OC1CC2CCC(C1)N2CCCN1c2ccccc2Sc2ccc(Cl)cc21 (stereo not drawn)", "assayedTarget": "L1210 leukemia ip in BDF1 mice, survival T/C", "T/C": "97 % of control"}
{"compound": "O=C(CCc1ccccc1)NC(=S)Nc1cccc([N+](=O)[O-])c1", "assayedTarget": "L1210 leukemia ip in BDF1 mice, survival T/C", "T/C": "96 % of control"}

Hello, I would appreciate it if you could give T/C for each entry below.
1. COc1nc(C)c(C)[n+]([O-])n1
2. CCCCCCCCCCCCSCCCN
3. C/C(=N/N)c1ccc(Br)cc1

94 % of control
96 % of control
110 % of control
